system: RXF 393 renal; assay: NCI tumour cell line growth inhibition, 48 h
TGI overview
Readout: TGI (µM)

Compound | Recorded Measurement
Cc1ccc2ncnc(N(C)C3CCCCC3)c2c1 | 17.9
CC(=O)OC(C(=O)[O][Ge]([CH3])([CH3])[CH3])c1ccccc1 (centres undefined) | 7.09
CN(C)CC1(Cc2ccccc2)CC/C(=C\c2ccccc2)C1=O (centres undefined) | 92.8
COc1ccc2c(c1)OCC1c3cc(OC)c4ccccc4c3OC21 (centres undefined) | 46

====

system: SF-295 CNS; test: NCI tumour cell line growth inhibition, 48 h

Smiles Data | TGI
CNC(=O)O/N=C1\N(C)CN(c2ccccc2)C12CCN(CCCC(=O)c1ccc(F)cc1)CC2 | > 100 µM
c1ccc2c(c1)nc1ccccn12 | > 100 µM
COc1ccc(/C=C2/SC(=Nc3ccccc3)N(NC(=O)Cc3ccccc3)C2=O)cc1 | > 100 µM

====

Form field: GI50 (one value per entry).
system: HS 578T breast; assay: NCI tumour cell line growth inhibition, 48 h
Readout: GI50

Compound | Readout | Recorded Measurement
COc1ccc(OC)c(C2=C(c3cn(C)c4ccccc34)C(=O)NC2=O)c1 | GI50 | > 16.9 µM
CCN1CCN(Cc2ccc(NC(=O)Nc3nc(-c4cc(OC)c(OC)c(OC)c4)cs3)cc2C(F)(F)F)CC1 | GI50 | 1.65 µM
c1cc[n+](Cc2c3ccccc3cc3c2ccc2ccccc23)cc1 | GI50 | 1.96 µM
CC(C)n1cc(-c2ccc3c(c2)N(C)CC3)c2c(NS(=O)(=O)c3ccn(C)n3)ccnc21 | GI50 | 37 µM
COc1ccc2c(c1)OCC1c3cc(OC)c4ccccc4c3OC21 (stereo not given) | GI50 | 11.3 µM

====

In this section we review reported GI50 values for a set of compounds.
test system: UO-31 renal; experiment: NCI tumour cell line growth inhibition, 48 h

Compound | GI50
CSC1=CC(=O)c2ccccc2C1=O | 1.4 µM
Cc1cc(S(=O)(=O)Nc2nc3ccccc3c(=O)n2Cc2ccco2)c(S)cc1Cl | 49.5 µM
CC(=O)OC(C(=O)[O][Ge]([CH3])([CH3])[CH3])c1ccccc1 (stereo not drawn) | > 100 µM
COc1cccc(C(=O)NNc2nc(Cl)nc(N3CCN(C(c4ccccc4)c4ccccc4)CC3)n2)c1 | 3.14 µM
COc1ccccc1CNCCCN1C(=O)c2ccc3c4c(ccc(c24)C1=O)C(=O)N(CCCNCCCCNCCCN)C3=O | 2.66 µM
COc1ccc(-c2cc(=O)c3c(OC)c4ccoc4c(/C=C/C=O)c3o2)cc1 | 3.17 µM
C=C(C(=O)c1ccccc1)C(NC(C)(C)C)c1ccccc1 (stereo not drawn) | 1.38 µM
CCCCCCCCCN=C(N)c1ccc(N2CCN(c3ccc(C(N)=NCCCCCCCCC)cc3)CC2)cc1 | 3.5 µM

====

tested on: SF-539 CNS; assay: NCI tumour cell line growth inhibition, 48 h; in the data active = GI50 below about 0.43 µM; inactive = the rest
Outcomes: yes for active, no for inactive

Compound | Assay System | Class Name
Clc1nc(Cl)c2ncn(-c3ccccc3)c2n1 | SF-539 CNS | no
CCN1C(=O)/C(=c2\sc3n(c2=O)C2C(NN=3)N(CC)C(=O)N2CC)c2ccccc21 (centres undefined) | SF-539 CNS | yes
COC(=O)CN1Cc2cc(C)cc(c2O)CN(CC(=O)OC)Cc2cc(C)cc(c2O)CN(CC(=O)OC)Cc2cc(C)cc(c2O)CN(CC(=O)OC)Cc2cc(C)cc(c2O)C1 | SF-539 CNS | no
CS(=O)(=O)N1CCC(Nc2ncc(C(=O)c3c(F)cccc3F)c(N)n2)CC1 | SF-539 CNS | no
C[n+]1cccc(NC(=O)c2ccc3ccc4ccc(C(=O)Nc5ccc[n+](C)c5)nc4c3n2)c1 | SF-539 CNS | no
COc1ccc(-c2cc(=O)c3c(OC)c4ccoc4c(/C=C/C=O)c3o2)cc1 | SF-539 CNS | no
CSC1=CC(=O)c2ccccc2C1=O | SF-539 CNS | no
COC(=O)C1C(C(=O)O)C2(c3ccccc3)C(=O)C1(c1ccccc1)C(c1ccc(OC)cc1)=C2c1ccc(OC)cc1 (centres undefined) | SF-539 CNS | no
COc1cc2c(Nc3ccc(-c4ccc(N)cc4)cc3)ncnc2c(OC)c1OC | SF-539 CNS | no
CC(C)C[C@H](NC(=O)[C@@H](Cc1ccccc1)n1ccc(Nc2ccccc2)cc1=O)B(O)O | SF-539 CNS | yes
Cc1ccc(NC(=S)NNC(=S)Nc2ccc(C)cc2)cc1 | SF-539 CNS | no
Nc1c(C(=O)Nc2cccc(Cl)c2)sc2nc3c(cc12)C(O)CCC3 (centres undefined) | SF-539 CNS | yes
c1cc[n+](Cc2c3ccccc3cc3c2ccc2ccccc23)cc1 | SF-539 CNS | no
COc1ccc(N=Nc2ccc(O)c(=O)cc2)cc1 | SF-539 CNS | no
CC(=O)[O-].CC(=O)[O-].O=C([CH-]C(=O)c1ccccc1)c1ccccc1.[Nd+3].[OH3+] | SF-539 CNS | no
O=C1/C(=C/c2ccc(Cl)cc2)CN(Cc2cn(CCCNc3ccnc4cc(Cl)ccc34)nn2)C/C1=C\c1ccc(Cl)cc1 | SF-539 CNS | no
CCCCCCCCCN=C(N)c1ccc(N2CCN(c3ccc(C(N)=NCCCCCCCCC)cc3)CC2)cc1 | SF-539 CNS | no
COc1ccc2[nH]c(C(=O)OCc3ccc4c(Br)cc(Br)c(O)c4n3)cc2c1 | SF-539 CNS | no
CC1(C)CC[C@]23CC[C@]4(C)[C@H](CC[C@@H]5[C@@]6(C)CCCNC(C)(C)[C@@H]6CC[C@]54C)[C@H]2[C@H]1OC3 | SF-539 CNS | no
